- experimentDescription: qHTS Assay for Lipid Storage Modulators in Drosophila S3 Cells;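 further: cells counted by Cell Tracker Red CMTPX staining in the red channel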
- conditionInfo: BODIPY lipid droplet fluorescence, 18-24 h, cells fed with added oleic acid; measured here: cell count max response
In all, about 320,000 compounds went through this assay and about 2,100 (0.66%) were called active. Roughly 53% stayed inconclusive and do not appear here. Shown is part of a subset that was picked to be rich in actives.
readoutName: cell number change (%)
The response must be a number in % with no trailing unit.

Query block: Which cell number change reading was recorded for the molecule CC1(C)CC(=O)c2cc(NC(=O)c3ccccc3)c(=O)oc2C1 ?
Result block: 6.08

Query block: Which cell number change reading was recorded for the molecule CCn1c(CNC(=O)COc2c(C)cccc2C)nnc1SCC(=O)Nc1nccs1 ?
Result block: -11

Query block: Which cell number change reading was recorded for the molecule O=C1ON=C(c2ccccc2)/C1=C/c1cccnc1 ?
Result block: 4.4

Query block: Which cell number change reading was recorded for the molecule COc1ccc(NC(=O)CN(C)C(=O)/C=C/c2ccc(OCc3ccccc3)cc2)cc1 ?
Result block: -11.8

Query block: Which cell number change reading was recorded for the molecule COCCNC(=O)CSc1nc2ccccc2c(=O)n1CCC(=O)NCCc1ccc(OC)c(OC)c1 ?
Result block: -7

Query block: Which cell number change reading was recorded for the molecule Cc1ccc(C2=NOC(=O)/C2=C\C=C\c2ccccc2)cc1 ?
Result block: -25.2

Query block: Which cell number change reading was recorded for the molecule CN(C)S(=O)(=O)Nc1cc(Cl)cc(Cl)c1 ?
Result block: -41.2

Query block: Which cell number change reading was recorded for the molecule O=C(Cn1cncn1)NCc1cccc2ccccc12 ?
Result block: -12.1

Query block: Which cell number change reading was recorded for the molecule N#Cc1ccsc1NC(=O)CN(Cc1ccccc1)Cc1ccccc1 ?
Result block: -9.01

Query block: Which cell number change reading was recorded for the molecule CCC(C)(C)n1nnnc1C(c1cc2cc(C)cc(C)c2[nH]c1=O)N1CCCC1 (stereo not given) ?
Result block: 6.4

Query block: Which cell number change reading was recorded for the molecule Cc1ccc(F)c(NC=C2C(=O)OC(C)(C)OC2=O)c1 ?
Result block: -13.4

Query block: Which cell number change reading was recorded for the molecule COc1cc(S(=O)(=O)N2CCC(c3nc4ccccc4s3)CC2)ccc1S(=O)(=O)N1CC(C)CC(C)C1 (stereo not given) ?
Result block: 0.159

Query block: Which cell number change reading was recorded for the molecule Cc1cccc(C)c1NS(=O)(=O)c1ccc(-c2ccc(=O)[nH]n2)o1 ?
Result block: -21.6

Query block: Which cell number change reading was recorded for the molecule Cc1ccc(NS(=O)(=O)c2ccc(-c3ccc(=O)[nH]n3)o2)c(C)c1 ?
Result block: 3.54

Query block: Which cell number change reading was recorded for the molecule CCOC(=O)Cn1nc(C)c([N+](=O)[O-])c1C ?
Result block: 2.33

Query block: Which cell number change reading was recorded for the molecule Cn1c(=O)n(CC(=O)O)c(=O)c2c1nc1n2CCCN1Cc1ccccc1 ?
Result block: 6.57

Query block: Which cell number change reading was recorded for the molecule CCN1CCc2c(sc(NC(=O)c3ccc(S(=O)(=O)N(C)CC4CCCO4)cc3)c2C(N)=O)C1 (stereo not given) ?
Result block: -26.3

Query block: Which cell number change reading was recorded for the molecule COCCN(C(=S)Nc1ccccc1OC)C(C)c1cccs1 (stereo not given) ?
Result block: 10.3

Query block: Which cell number change reading was recorded for the molecule O=C1Nc2c(c(=O)[nH]c(=O)n2-c2ccccc2F)C(C(F)(F)F)(C(F)(F)F)N1 ?
Result block: 12.5

Query block: Which cell number change reading was recorded for the molecule COC(=O)CNC(c1ccccc1)c1cc(Br)ccc1NC(C)=O (stereo not given) ?
Result block: 6.76

Query block: Which cell number change reading was recorded for the molecule COC(=O)c1cc(OC)c(OC)cc1NC(=S)NC(=O)c1ccco1 ?
Result block: -15.6

Query block: Which cell number change reading was recorded for the molecule CCN1CCc2c(sc(NC(=S)NC(=O)c3ccc(Cl)cc3)c2C(N)=O)C1 ?
Result block: 6.82

Query block: Which cell number change reading was recorded for the molecule O=C(CCN1C(=O)/C(=C\c2ccco2)SC1=S)Nc1ccc(C(=O)O)c(O)c1 ?
Result block: 1.15

Query block: Which cell number change reading was recorded for the molecule Cc1ccc(N(C(=O)CCC(=O)Nc2cc(C)on2)C(C(=O)NC2CCCC2)c2ccccc2)cc1 (stereo not given) ?
Result block: -13.1

Query block: Which cell number change reading was recorded for the molecule O=C(NS(=O)(=O)Oc1cccc(Cl)c1Cl)OC[C@@H]1CCCN2CCCCC12 (stereo not given in full) ?
Result block: -10.2
